Molecular target: T1, HD21 (huntingtin exon 1 protein with 21 polyQ repeats after cleavage of the GST tag; aggregation reaction) (human, UniProt P42858 1-88)
T1 chain: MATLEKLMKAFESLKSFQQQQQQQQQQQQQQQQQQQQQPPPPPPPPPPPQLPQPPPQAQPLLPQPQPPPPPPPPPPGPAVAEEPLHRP
Experiment: ELISA
pEC50: −log10 of the molar value.
Entries annotated with measured pEC50

Binder: NI-302.15D3 (antibody, V domains shown) VH: EVQLVESGGDLVQPGGSLRLSCAASGFTFSSYWMHWVRQAPGKGLVWVSRISNDGSSKTYADSVKGRFTISRDNAKNTLYLQMNSLRAEDTAVYYCAILGGYCSSTSCRPFDNWGQGTLVTVSS VL: QSALTQPASVSGSPGQSITISCTGTSSDVGVYNYVSWYQQHPGKAPKLMIFDVSNRPSGISNRFSGSKSGNTASLTISGLQAEDEADYYCSSYTSSDTWVFGGGTKLTIL
pEC50: 8.19
--
Binder: NI-302.15F9 (antibody, V domains shown) VH: EVQLVESGGGLVTPGGSLRLSCEASGFLFKNSSMNWVRQTPGKGLEWVSSIDTSATNYKYYADSVKGRFTISRDDATNSLYLQMNSLRADDTATYYCARGYYTPRDFDYWGQGTLVTVSS VL: DVVMTQSPQTLSVSLGQAASISCRSSQSLLYRDNNTYLNWFHQRPGQSPRRLIYRASDRDSGVPDRFSGGGSGTDFTLKISGVEAEDVGTYYCMQGTHWPRTFGQGTKVEIK
pEC50: 7.46
--
Binder: NI-302.33C11 (antibody, V domains shown) VH: EVQLVESGGGVVQPGNSLRLSCAASGFRFSDFGMHWVRQAPGKGLEWLALIWYDGGYKYYADSVKGRFTISRDNSKNTMFLQMNSLRAEDTAVYYCATHLEYCSRTTCYLGHWGQGTLVTVSS VL: DIQLTQSPSFLSASVGDTVTFTCRASQGISDYLAWFQQKPGIAPKLLIYAASTLQTGVPSRFSGSGSGTEFTLTIRSLQSEDFGTYYCQQLKTYPYTFGQGTKVEIK
pEC50: 9.89
